Record set: Ki | UniProt:P00918 | literature, multiple sources.
measuredProperty: Ki (nM)

* CCc1cc(-c2ccccc2)cc(-c2ccccc2)[n+]1Cc1ccc(S(N)(=O)=O)cc1 | 314
* NS(=O)(=O)c1ccc(-c2ccc(C(=O)c3ccc([N+](=O)[O-])cc3)cc2)cc1 | 63.3
* Cn1nc(S(N)(=O)=O)s/c1=N/C(=O)c1ccccc1 | 17

[a] CCN(CC)Cc1cc(S(=O)(=O)c2coc(S(N)(=O)=O)c2)ccc1O.Cl
[b] CC(=O)Nc1ccc(S(=O)(=O)Nc2nnc(S(N)(=O)=O)s2)cc1F
## Task Of a and b , whose reported Ki is numerically smaller? Selection: enter the item's label.
## Result b
(b: 1.2 nM, a: 4 nM)

====

Record set: Ki | Carbonic anhydrase 2 (Homo sapiens) | literature, multiple sources.
measuredProperty: Ki (nM)

Answered examples (4):
* CCCCCN(CCCCC)CCC(=O)N(CCc1ccc(S(N)(=O)=O)cc1)Cc1ccccc1 | 523
* NS(=O)(=O)c1ccc(CCN(Cc2ccc(F)cc2)C(=O)CN(CCC(=O)O)CCc2ccccc2)cc1 | 23.5
* CSCCC(=O)NCc1ccc(S(N)(=O)=O)cc1 | 69.5
* COc1nc(Nc2ccc(S(N)(=O)=O)cc2)nc(OC)n1 | 36

[I] CC(=O)N1N=C(c2cccc(OS(N)(=O)=O)c2)CC1c1ccc(Cl)cc1 (stereo not given)
[II] Nc1nc(-c2ccc(NC(=O)CCNC(=O)c3cccc(S(N)(=O)=O)c3)cc2)cn2c(=O)n(-c3ccccc3)nc12
## Task // compare measured Ki, left I , right II , return larger Selection: enter the item's label.
## Result II
(II: 341 nM, I: 14.7 nM)

====

Record set: Ki | Carbonic anhydrase 2 (Homo sapiens) | literature, multiple sources.
measuredProperty: Ki (nM)

• NS(=O)(=O)c1cc(S(N)(=O)=O)c(NCc2cc(=O)oc3cc(Cl)ccc23)c(Cl)c1Cl = 18

[a] O=C(N/N=C/c1ccc(Br)cc1)Nc1n[nH]c(=S)s1
[b] Cc1cc(C)[n+](Cc2ccc(S(N)(=O)=O)cc2)c(C)c1
[c] NS(=O)(=O)c1ccc(CCNCc2ccc([N+](=O)[O-])cc2)cc1
[d] NS(=O)(=O)c1ccccc1N1C(=O)c2c(Br)c(Br)c(Br)c(Br)c2C1=O
## Task Which order do these items take when sorted by rising Ki? List them. The reply should contain the labels ordered as requested.
## Result b, c, d, a

[P] NS(=O)(=O)c1cc(C(=O)NCc2ccccc2)c(Cl)cc1S
[Q] COc1cc(/C=N/NC(=O)Nc2n[nH]c(=S)s2)ccc1O
## Task // compare measured Ki, left P , right Q , return larger Selection: enter the item's label.
## Result Q
(Q: 386000 nM, P: 19.9 nM)

====

Record set: pKi | Carbonic anhydrase 2 (Homo sapiens) | literature, multiple sources.
pKi: −log10 of the molar value.
measuredProperty: pKi

- CCOc1ccc(S(N)(=O)=O)cc1-c1nnc2c(n1)c(C)nn2C: 6.37

[1] O=[N+]([O-])c1ccccc1S(=O)(=O)Nc1n[nH]c(=S)s1
[2] NS(=O)(=O)c1cc(C(=O)N[C@@H](Cc2ccccc2)C(=O)O)ccc1Cl
[3] O=C(Nc1ccc2c(c1)C(=O)NS2(=O)=O)c1cccc(Cl)c1
[4] NS(=O)(=O)c1ccc(C(=O)Nc2ccc([Se][C@@H]3O[C@H](CO)[C@H](O)[C@H](O)[C@H]3O)cc2)cc1
## Task Which order do these items take when sorted by rising pKi? List them. The reply should contain the labels ordered as requested.
## Result 1, 3, 2, 4

====

Record set: Ki | UniProt P00918 | literature, multiple sources.
measuredProperty: Ki (nM)

* CCCC(CCC)C(=O)Nc1cccc(S(N)(=O)=O)c1 | 221
* C[C@H](CCC(=O)NCc1ccc(S(N)(=O)=O)cc1)[C@H]1CC[C@H]2[C@@H]3C(=O)C[C@@H]4CC(=O)CC[C@]4(C)[C@H]3CC(=O)[C@]12C | 26

[P] NS(=O)(=O)c1ccc(-c2ccc([N+](=O)[O-])cc2)cc1
[Q] Cc1cccc(-n2c(-c3ccc(S(=O)(=O)c4ccc(Br)cc4)cc3)n[nH]c2=S)c1
[R] NS(=O)(=O)c1ccc(Nc2nc(Cl)nc(NCCO)n2)cc1
## Task Which order do these items take when sorted by rising Ki? List them. The reply should contain the labels ordered as requested.
## Result P, R, Q

====

Record set: Ki | Carbonic anhydrase 2 (Homo sapiens) | literature, multiple sources.
measuredProperty: Ki (nM)

* NS(=O)(=O)c1ccc2nc(NC(=O)CSC(=S)N3CCCCC3)sc2c1 | 3.8

[I] CC(=O)OC[C@H]1O[C@@H](NC(=S)NNC(=O)c2ccc(S(N)(=O)=O)cc2)[C@H](OC(C)=O)[C@@H](OC(C)=O)[C@H]1OC(C)=O
[II] O=S(=O)(N1CCOCC1)N1CCOCC1
[III] NS(=O)(=O)NCCSSCCNS(N)(=O)=O
## Task Which order do these items take when sorted by rising Ki? List them. The reply should contain the labels ordered as requested.
## Result I, III, II

[A] NS(=O)(=O)c1ccc(CCNC(=O)c2ccc(Cl)c(S(N)(=O)=O)c2)cc1
[B] CCC(C)CC(=O)O (stereo not given)
## Task Of A and B , whose reported Ki is numerically smaller? Selection: enter the item's label.
## Result A
(A: 26 nM, B: 281000 nM)

[I] Nc1c(F)cc(S(=O)(=O)Nc2nnc(S(N)(=O)=O)s2)cc1I
[II] NS(=O)(=O)OCCc1ccccc1
## Task // compare measured Ki, left I , right II , return larger Selection: enter the item's label.
## Result II

====

pKi: −log10 of the molar value.
Record set: pKi | Carbonic anhydrase 2 (Homo sapiens) | literature, multiple sources.
measuredProperty: pKi

Answered examples (4):
• NS(=O)(=O)c1ccc(N2C(=O)c3ccc(C(=O)Nc4ccccc4C(=O)O)cc3C2=O)cc1 = 8.05
• Cc1nnc(-c2cc(S(N)(=O)=O)c(Cl)cc2Cl)o1 = 8.06
• O=C(OC[C@H]1O[C@@H](OC(=O)c2cc(O)c(O)c(OC(=O)c3cc(O)c(O)c(O)c3)c2)[C@H](OC(=O)c2cc(O)c(O)c(OC(=O)c3cc(O)c(O)c(O)c3)c2)[C@@H](OC(=O)c2cc(O)c(O)c(OC(=O)c3cc(O)c(O)c(O)c3)c2)[C@@H]1OC(=O)c1cc(O)c(O)c(OC(=O)c2cc(O)c(O)c(O)c2)c1)c1cc(O)c(O)c(OC(=O)c2cc(O)c(O)c(O)c2)c1 = 4.48
• NS(=O)(=O)c1ccc(-c2cn([C@@H]3O[C@H](CO)[C@H](O)[C@H](O)[C@H]3O)nn2)cc1 = 8.06

[P] NS(=O)(=O)c1ccc(-c2ccc(C(=O)O)cc2)cc1
[Q] Nc1cccc(C(=O)O)c1
[R] O=C1Nc2c(Br)cccc2S(=O)(=O)N1
[S] NS(=O)(=O)c1ccc(N/C(S)=N/C(CO)C(=O)O)cc1 (stereo unspecified)
[T] O=C(O)/C(O)=C/C(=O)c1ccccc1
## Task Which order do these items take when sorted by rising pKi? List them. The reply should contain the labels ordered as requested.
## Result Q, T, R, P, S
(Q: 5.06, T: 5.37, R: 6.28, P: 8.21, S: 8.52)

====

Record set: Ki | Carbonic anhydrase 2 (Homo sapiens, UniProt P00918) | literature, multiple sources.
measuredProperty: Ki (nM)

Answered examples (3):
- CN(C)CCOCCOC(=O)c1ccc(S(=O)(=O)/N=c2/sc(S(N)(=O)=O)nn2C)cc1: 1.7
- NS(=O)(=O)c1cc(C(=O)N[C@@H](Cc2ccc(O)cc2)C(=O)O)ccc1Cl: 250
- NS(=O)(=O)c1nnc(NC(=O)c2c(F)c(F)cc(F)c2F)s1: 2.1

[P] NS(=O)(=O)c1ccc(-c2ccc(C(O)c3ccc(C(=O)O)cc3)cc2)cc1 (stereo not given)
[Q] Nc1nc(-c2ccc(NC(=O)c3cccc(S(N)(=O)=O)c3)cc2)cn2c(=O)n(-c3ccccc3)nc12
## Task // compare measured Ki, left P , right Q , return larger Selection: enter the item's label.
## Result P

====

Record set: Ki | Carbonic anhydrase 2 (Homo sapiens, UniProt P00918) | literature, multiple sources.
measuredProperty: Ki (nM)

Answered examples (4):
- NS(=O)(=O)c1ccc(NSC(=S)N2CCOCC2)c(Br)c1: 48
- CC[C@H](C)[C@H](NC(=O)c1ccc(Cl)c(S(N)(=O)=O)c1)C(=O)O: 280
- NS(=O)(=O)c1ccc(C(=O)N2CCN(C(=O)c3ccccc3F)CC2)cc1: 28.4
- O=C(O)c1cc(-c2c3ccc(=O)cc-3oc3cc(O)ccc23)ccc1NC(=S)NCCc1ccc(O)c(O)c1: 4400

[A] N/C(=N\S(=O)(=O)c1ccccc1SCc1ccccc1)NNc1nc(Cl)nc(Nc2cccc(S(N)(=O)=O)c2)n1
[B] O=[N+]([O-])c1cccc(S(=O)(=O)NO)c1
## Task Of A and B , whose reported Ki is numerically smaller? Selection: enter the item's label.
## Result B
